Biological target: α-Glucosidase (Saccharomyces cerevisiae);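 also: yeast α-glucosidase premixed with inhibitor in phosphate buffer for 15 min at 37 °C, then a further 15 min reaction with p-NPG substrate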
Construct: purchased Sigma (Sigma-Aldrich) G5003
Sequence (P53341 whole entry): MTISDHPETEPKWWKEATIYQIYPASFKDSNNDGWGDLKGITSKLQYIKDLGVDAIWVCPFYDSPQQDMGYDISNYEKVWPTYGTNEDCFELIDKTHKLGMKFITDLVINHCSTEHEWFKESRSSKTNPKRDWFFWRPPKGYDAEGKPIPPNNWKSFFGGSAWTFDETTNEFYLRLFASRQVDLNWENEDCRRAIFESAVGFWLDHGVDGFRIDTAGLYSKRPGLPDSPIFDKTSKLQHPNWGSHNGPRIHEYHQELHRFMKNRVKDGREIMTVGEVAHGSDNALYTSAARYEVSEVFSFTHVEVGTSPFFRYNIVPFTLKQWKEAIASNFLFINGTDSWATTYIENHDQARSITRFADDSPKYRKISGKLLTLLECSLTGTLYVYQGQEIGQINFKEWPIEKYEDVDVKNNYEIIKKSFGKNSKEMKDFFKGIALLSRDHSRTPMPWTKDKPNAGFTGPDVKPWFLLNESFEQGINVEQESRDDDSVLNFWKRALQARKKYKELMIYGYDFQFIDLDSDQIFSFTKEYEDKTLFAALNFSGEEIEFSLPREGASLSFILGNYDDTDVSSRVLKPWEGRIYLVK
Assay: biochemical
Settings: read-out: α-glucosidase inhibition rate
measure_name: inhibition at 6 µg/mL

{"columns": ["mol_smiles", "inhibition at 6 µg/mL"],
 "data": [
  ["CC1(C)CC[C@]2(C(=O)O)CC[C@]3(C)C(=CC[C@@H]4[C@@]5(C)CC[C@H](O)C(C)(C)[C@@H]5CC[C@]43C)[C@@H]2C1", "39.9%"],
  ["CC[C@H](/C=C/[C@@H](C)[C@H]1CC[C@H]2[C@@H]3CC=C4C[C@@H](O)CC[C@]4(C)[C@H]3CC[C@]12C)C(C)C", "7.1%"]
]}

Now, please, on to the next compound.
In: Return reported inhibition at 6 µg/mL; argument: `CC(=O)O[C@H]1CC[C@]2(C)[C@H]3CC=C4[C@@H]5CC(C)(C)CC[C@]5(C(=O)O)CC[C@@]4(C)[C@]3(C)CC[C@H]2C1(C)C`
Out: 38.2%
